Quick list: kon per entry.
Measured target: SARS-CoV-2 spike (S) protein (SARS-CoV-2, UniProt P0DTC2 14-1208)
Readout type: kon (M⁻¹ s⁻¹)

[
  {
    "Binder": "antibody 318 (antibody, V domains shown) VH: QVQLVESGGGVVPPGRSLSLPCAASGFSFSAYAMHWLRQAPGKGLEWVAVISYDGTVKYVADSVRGRFTISRDNSNNTLYLQMTSLRSDDTAVYYCARDLGALAAAPTVYFVHWGQGTLVTVSS VL: SYVLTQPPSVSVAPGKTATITCAGEDIGRKSVHWYQQKPGQAPVLVIFYYSDRPSGIPDRFSGSVSGNTATLTIGRVEAGDEADYFCQVWDRTTNHVIFGGGTKVTVL",
    "Readout type": "kon",
    "Quantity unit": "M⁻¹ s⁻¹",
    "Observed": 152000
  },
  {
    "Binder": "antibody 368 (antibody, V domains shown) V domain 1: QITLKESGPTLVKPTETLTLTCAFSGFSLTKTGEAAGWIRQAPGRALEWVTVIFWDDDKRYSPSLQNRLTVTKDTSKNVVVLTMTNVDPVDTATYFCWAMGGPGKEFFGQGTRVAVSS V domain 2: QSVLTQPPSVSGAPGQRVTVSCTGTSSSIGPYSDVHWYQHIPGKAPRLLIFGTSNRPSGVPARFSGSKSGSSASLVIAGLQAEDEADYYCQSYDSSLGEIYVFGTGTTVTVL",
    "Readout type": "kon",
    "Quantity unit": "M⁻¹ s⁻¹",
    "Observed": 38100
  }
]
